observable: boiling point
Enter the number, and then the unit.

See these solved cases before continuing.
INSERT INTO results (compound, observable, result_value) VALUES
  ('COC=O', 'boiling point', '31.7 °C'),
  ('CCCCC=O', 'boiling point', '103 °C'),
  ('Cc1ccc(C(C)(C)C)cc1', 'boiling point', '190 °C');

What does the data say about its boiling point? Entry: `CC(=O)Nc1ccc(C)cc1`
307 °C

What does the data say about its boiling point? Entry: `CN(C)c1ccccc1N(C)C`
216 °C

What does the data say about its boiling point? Entry: `CCOC(=O)c1ccc(O)c(OC)c1`
292 °C

What does the data say about its boiling point? Entry: `OCC(F)(F)C(F)(F)F`
82 °C

What does the data say about its boiling point? Entry: `C=CC(N)=O`
193 °C

What does the data say about its boiling point? Entry: `CSCCC=O`
166 °C

What does the data say about its boiling point? Entry: `CCCC(C)(C)C(C)C`
138 °C

What does the data say about its boiling point? Entry: `O=Cc1ccco1`
162 °C

What does the data say about its boiling point? Entry: `CC(C)Cc1ccc(N)cc1`
238 °C

What does the data say about its boiling point? Entry: `Cc1ccc(C)c(Cl)c1`
187 °C

What does the data say about its boiling point? Entry: `CC(F)(F)CCl`
55 °C

What does the data say about its boiling point? Entry: `O=C(C(Cl)Cl)C(Cl)Cl`
183 °C

What does the data say about its boiling point? Entry: `COc1ccc(Br)cc1`
215 °C
